Source: patent US20230094952A1

Please go through the items and note down their mCherry-positive rate.
Tested on: mouse long-term hematopoietic stem cells
Procedure Text: Reproducibility and concentration dependence test: 1-week culture of sorted Hoxb5-tri-mCherry mouse long-term hematopoietic stem cells, flow cytometry
Assay type: cell-based
Recorded Conditions: Table 4; compound 0.1 μM; day 7 of culture; n=2
Quick reminder: number only, in %, skip the unit.

## Task Consider the molecule shown here: C[C@H]1[C@H](c2ccco2)O[C@@H]2O[C@@]3(C)CC[C@H]4[C@H](C)CC[C@@H]1[C@@]24OO3 What is its recorded mCherry-positive rate?
## Result 42.9

## Task If you can, please state the reported mCherry-positive rate value of C[C@H]1[C@H](N(C)C)O[C@@H]2O[C@@]3(C)CC[C@H]4[C@H](C)CC[C@@H]1[C@@]24OO3 .
## Result 7.3

## Task Can you look up the measured mCherry-positive rate of C[C@H]1[C@@H](Oc2ccccc2)O[C@@H]2O[C@@]3(C)CC[C@H]4[C@H](C)CC[C@@H]1[C@@]24OO3 for me?
## Result 0.0

## Task Fill blank: measured mCherry-positive rate of the molecule C[C@@H]1CC[C@H]2[C@@H](C)C(=O)O[C@@H]3O[C@@]4(C)CC[C@@H]1[C@]32OO4 [Example 1-33, artemisinin, reference compound] is ____.
## Result 28.1

## Task Which mCherry-positive rate value belongs to C[C@H]1[C@@H](O)O[C@@H]2O[C@@]3(C)CC[C@H]4[C@H](C)CC[C@@H]1[C@@]24OO3 [Example 1-29, artenimol, reference compound] ?
## Result 13.3

## Task Which measured mCherry-positive rate value corresponds to C[C@H]1[C@@H](OCC(F)(F)F)O[C@@H]2O[C@@]3(C)CC[C@H]4[C@H](C)CC[C@@H]1[C@@]24OO3 ?
## Result 90.9
